The following molecules are listed with their measured inhibition values.
# tested.system: Adenosine receptor A2a (Homo sapiens) (UniProt P29274)
# Sequence (P29274 whole entry): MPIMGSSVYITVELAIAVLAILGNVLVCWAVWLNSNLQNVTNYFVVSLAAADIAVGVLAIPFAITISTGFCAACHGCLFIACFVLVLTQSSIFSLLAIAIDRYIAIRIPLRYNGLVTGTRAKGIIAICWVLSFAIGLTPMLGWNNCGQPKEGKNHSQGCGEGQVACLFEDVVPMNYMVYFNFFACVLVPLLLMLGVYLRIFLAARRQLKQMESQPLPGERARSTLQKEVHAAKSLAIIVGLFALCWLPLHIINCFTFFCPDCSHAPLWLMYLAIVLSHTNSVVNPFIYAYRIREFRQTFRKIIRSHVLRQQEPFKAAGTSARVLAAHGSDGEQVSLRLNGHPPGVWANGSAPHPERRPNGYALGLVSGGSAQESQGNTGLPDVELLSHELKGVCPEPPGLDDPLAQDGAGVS
# test.details: Inhibition of human adenosine A2A receptor expressed in CHO cells at 10 uM
# Assay type: cell-based

Observe how each entry below is paired with its result.
query.smiles: CNc1ncnc2c1ncn2[C@@H]1O[C@H](CO)[C@@H](NC(N)=O)[C@H]1O
inhibition: < 10%
--
query.smiles: NC(=O)N[C@H]1[C@@H](O)[C@H](n2cnc3c(NCc4cccc(I)c4)nc(Cl)nc32)O[C@@H]1CO
inhibition: < 10%
--
query.smiles: CNC(=O)[C@H]1O[C@@H](n2cnc3c(NC)ncnc32)[C@H](O)[C@@H]1NC(N)=O
inhibition: < 10%

Per the records, this molecule ( NC(=O)N[C@H]1[C@@H](O)[C@H](n2cnc3c(NCc4cccc(I)c4)ncnc32)O[C@@H]1CO ) has inhibition equal to < 10%

Per the records, this molecule ( CNC(=O)[C@H]1O[C@@H](n2cnc3c(NCc4cccc(I)c4)ncnc32)[C@H](O)[C@@H]1NC(N)=O ) has inhibition equal to < 10%

====

# tested.system: Adenosine receptor A3 (Homo sapiens, UniProt P0DMS8, H272E)
# Sequence (P0DMS8 whole entry H272E): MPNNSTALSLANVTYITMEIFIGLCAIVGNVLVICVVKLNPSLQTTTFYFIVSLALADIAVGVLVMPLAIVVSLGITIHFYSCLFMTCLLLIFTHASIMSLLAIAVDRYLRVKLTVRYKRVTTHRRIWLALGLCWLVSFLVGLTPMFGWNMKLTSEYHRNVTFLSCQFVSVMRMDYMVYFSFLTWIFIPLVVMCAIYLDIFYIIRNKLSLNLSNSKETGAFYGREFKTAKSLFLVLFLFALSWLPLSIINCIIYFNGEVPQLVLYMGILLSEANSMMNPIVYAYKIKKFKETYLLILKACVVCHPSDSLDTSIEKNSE
# test.details: Displacement of [125I]I-AB-MECA from human adenosine A3 receptor H272E mutant expressed in COS7 cells
pKi: −log10 of the molar value.
experimental.endpoint: pKi

(a) [N-]=[N+]=NC[C@H]1S[C@@H](n2cnc3c(NCc4cccc(I)c4)ncnc32)[C@H](O)[C@@H]1O
(b) CNC(=O)[C@H]1O[C@@H](n2cnc3c(NCc4cc(Cl)ccc4OC)ncnc32)[C@H](O)[C@@H]1CN
Inquiry: // which entry reports the smaller pKi, a or b ? Answer with the label corresponding to your selection.
Reply text: b
(b: 6.23, a: 6.64)

====

# tested.system: Adenosine receptor A3 (Homo sapiens, UniProt P0DMS8, T94A)
# Sequence (P0DMS8 whole entry T94A): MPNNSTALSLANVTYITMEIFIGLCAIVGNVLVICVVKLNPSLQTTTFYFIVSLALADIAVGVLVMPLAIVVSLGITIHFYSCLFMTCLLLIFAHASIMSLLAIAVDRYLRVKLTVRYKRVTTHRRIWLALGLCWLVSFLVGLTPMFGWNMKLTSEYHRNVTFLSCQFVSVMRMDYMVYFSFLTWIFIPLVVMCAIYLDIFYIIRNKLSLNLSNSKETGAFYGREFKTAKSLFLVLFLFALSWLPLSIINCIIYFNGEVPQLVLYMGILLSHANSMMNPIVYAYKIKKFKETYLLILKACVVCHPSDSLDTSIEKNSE
# test.details: Displacement of [125I]I-AB-MECA from human adenosine A3 receptor T94A mutant expressed in COS7 cells
experimental.endpoint: Ki (µM)

Observe how each entry below is paired with its result.
query.smiles: CNC(=O)[C@H]1O[C@@H](n2cnc3c(NCc4cccc(I)c4)ncnc32)[C@H](O)[C@@H]1N=[N+]=[N-]
experimental.endpoint: Ki
test.value: 1.37

query.smiles: COc1ccc(Cl)cc1CNc1ncnc2c1ncn2[C@@H]1O[C@H](CO)[C@@H](CN)[C@H]1O
experimental.endpoint: Ki
test.value: 9.8

(P) NC[C@H]1[C@@H](O)[C@H](n2cnc3c(NCc4cccc(I)c4)ncnc32)O[C@@H]1CO
(Q) CNC(=O)[C@H]1O[C@@H](n2cnc3c(NCc4cccc(I)c4)ncnc32)[C@H](O)[C@@H]1CN
Inquiry: Please state the entry with greater Ki among P and Q . Answer with the label corresponding to your selection.
Reply text: P

====

# tested.system: Adenosine receptor A3 (Homo sapiens, UniProt P0DMS8, H272D)
# Sequence (P0DMS8 whole entry H272D): as the sequence (P0DMS8 whole entry H272E) above, with E272D counted along it
# test.details: Displacement of [125I]I-AB-MECA from human adenosine A3 receptor H272D mutant expressed in COS7 cells
experimental.endpoint: Ki (nM)

Observe how each entry below is paired with its result.
query.smiles: CNC(=O)[C@H]1O[C@@H](n2cnc3c(NCc4cc(Cl)ccc4OC)ncnc32)[C@H](O)[C@@H]1CN
Ki, nM: 390
--
query.smiles: CNC(=O)[C@H]1O[C@@H](n2cnc3c(NCc4cccc(I)c4)ncnc32)[C@H](O)[C@@H]1N=[N+]=[N-]
Ki, nM: 140
--
query.smiles: CNC(=O)[C@H]1O[C@@H](n2cnc3c(NCc4cccc(I)c4)ncnc32)[C@H](O)[C@@H]1CN
Ki, nM: 120
--
query.smiles: NC[C@H]1[C@@H](O)[C@H](n2cnc3c(NCc4cccc(I)c4)ncnc32)O[C@@H]1CO
Ki, nM: 850
--
query.smiles: CC(=O)NC[C@H]1[C@@H](O)[C@H](n2cnc3c(NCc4cccc(I)c4)ncnc32)O[C@@H]1CO
Ki, nM: 1000

(I) NC(=O)N[C@H]1[C@@H](O)[C@H](n2cnc3c(NCc4cccc(I)c4)ncnc32)O[C@@H]1CO
(II) COc1ccc(Cl)cc1CNc1ncnc2c1ncn2[C@@H]1O[C@H](CO)[C@@H](CN)[C@H]1O
Inquiry: // which entry reports the smaller Ki, I or II ? Answer with the label corresponding to your selection.
Reply text: I
(I: 470 nM, II: 2000 nM)
